Biological target: BRDT(D1) (Homo sapiens (Human), UniProt Q58F21)
Assay: HTRF binding of compounds on BRDT (D1)
Conditions: read-out: IC50 against BRDT(D1)
Procedure: Homogeneous time-resolved fluorescence technology (HTRF) was used to determine the binding effect of compounds on BRD4 (D1+D2) and BRDT (D1) proteins, as well as AlphaScreen method was used to detect the binding effect of compounds on BRD2 (D1+D2) and BRD3 (D1+D2) proteins. […] 5. Steps for Homogeneous Time-Resolved Fluorescence Detection: […] The experimental data were recorded in an Excel file, and equation (1) was used to obtain the inhibition rate. […]
Outcome measure: IC50 (µM)

Solved entries (count: 3):
compound="[2H]C([2H])([2H])n1cc(-c2cc(S(=O)(=O)NC)ccc2N2CCC3(CC2)CC3)c2cc[nH]c2c1=O [Compound 202]" reported=0.016
compound="[2H]C([2H])([2H])n1cc(-c2cc(S(=O)(=O)N3CC[C@H](O)C3)ccc2N2CCC3(CC2)CC3(F)F)c2cc[nH]c2c1=O [Compound 241]" reported=0.017
compound="[2H]C([2H])([2H])n1cc(-c2cc(S(N)(=O)=O)ccc2N2CCC3(CC2)CC3(F)F)c2cc[nH]c2c1=O [Compound 251]" reported=0.013

P: [2H]C([2H])([2H])n1cc(-c2cc(S(=O)(=O)NC)cnc2N2CCC3(CC2)CC3(F)F)c2cc[nH]c2c1=O [Compound 212]
Q: [2H]C([2H])([2H])n1cc(-c2cc(S(=O)(=O)N3CC[C@H](O)C3)cnc2N2CCC3(CC2)CC3)c2cc[nH]c2c1=O [Compound 243]
**Q:** Looking only at measured IC50, which entry is lower, P or Q ? Bench note: the answer is the label of the chosen record.
**A:** P
